# testTarget: Drosophila Su(H) (98-523) WT (Drosophila) (UniProt P28159)
# protocolDetails: ITC; cofactor (RAM peptide, Hairless or SHARP) in the syringe, Su(H) or Rbpj in the cell; 50 mM sodium phosphate, 150 mM sodium chloride; 20 injections, triplicate, one site model; 25°C by the legend, 20°C by the methods
measuredAttribute: Kd (nM)
Quick note: give the figure in nM, leave out the unit.

Record VLSTQRKRAHGVTWFPEGFRAPAAVMSR [Drosophila Notch RAM peptide (residues 1763-1790)] , field Kd: 187
